B1: TRAF3IP2 (parent)
chain: APWNYHYHCPGSPDHQVPYGHDYP

Variants of: B1
Experiment: protein stability index of a GFP-peptide fusion (GPS, HEK-293T) (PSI 1-6); higher = more stable;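 note: lentivirally expressed fusions sorted by FACS into six bins by GFP to DsRed ratio, PSI derived from sequencing read proportions per bin multiplied by bin number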
Details: c terminus: a fixed tail appended
fulfilled means recorded protein stability index is 2 or above; not fulfilled means it is below 2.

Please review the entries below; each comes with its answer.
(Q) Confirm if protein stability index reported for the variant P18W is 2 or above.
(A) not fulfilled

(Q) I'd appreciate it if you could say whether Y5G has protein stability index at least equal to 2.
(A) fulfilled

(Q) Dear colleague, could you confirm whether Y5A has protein stability index at or above 2?
(A) fulfilled

(Q) Decide: is the reported value of protein stability index for P13S equal to or greater than 2?
(A) fulfilled

(Q) Could you verify whether the entry P13E shows protein stability index of no less than 2?
(A) fulfilled

New cases:
(Q) Can Y23N be said to have protein stability index at or above 2?
(A) fulfilled

(Q) Dear colleague, could you confirm whether G20N has protein stability index at or above 2?
(A) fulfilled
